experimental system: T1, human NPR1 extracellular domain expressed with a C-terminal myc-myc-hexahistidine (hNPR1-MMH) (human, UniProt P16066 33-473)
T1 construct: also called hNPR.mmh; monomeric human NPR1
T1 sequence (P16066 other isoform, or with tags, fused parts or gaps): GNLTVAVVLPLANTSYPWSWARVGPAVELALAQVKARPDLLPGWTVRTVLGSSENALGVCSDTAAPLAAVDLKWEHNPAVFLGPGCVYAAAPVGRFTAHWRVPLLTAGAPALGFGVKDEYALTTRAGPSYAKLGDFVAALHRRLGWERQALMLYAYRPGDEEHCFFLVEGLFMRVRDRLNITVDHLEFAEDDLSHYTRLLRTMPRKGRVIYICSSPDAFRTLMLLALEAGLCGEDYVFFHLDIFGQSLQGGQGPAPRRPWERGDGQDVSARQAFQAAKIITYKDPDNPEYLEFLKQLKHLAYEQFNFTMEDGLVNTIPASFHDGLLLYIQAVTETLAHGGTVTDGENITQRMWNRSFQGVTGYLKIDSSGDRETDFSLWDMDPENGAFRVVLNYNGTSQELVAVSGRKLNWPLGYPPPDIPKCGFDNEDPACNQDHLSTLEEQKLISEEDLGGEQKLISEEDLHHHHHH
measurement description: SPR, mAb captured, 25 C
Classify by measured t½: true if it is equal to or exceeds 30 min, false if it is smaller.

Item mAb25491 (antibody, V domains shown) VH: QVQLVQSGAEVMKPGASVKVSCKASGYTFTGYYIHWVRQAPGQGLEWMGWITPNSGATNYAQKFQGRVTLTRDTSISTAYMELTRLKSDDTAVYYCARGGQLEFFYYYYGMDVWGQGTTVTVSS VL: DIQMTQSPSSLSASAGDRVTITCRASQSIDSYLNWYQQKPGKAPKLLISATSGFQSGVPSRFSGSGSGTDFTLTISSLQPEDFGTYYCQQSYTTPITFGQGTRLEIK with t½ of 30 min or above?
false

Next entry: mAb22035 (antibody, V domains shown) VH: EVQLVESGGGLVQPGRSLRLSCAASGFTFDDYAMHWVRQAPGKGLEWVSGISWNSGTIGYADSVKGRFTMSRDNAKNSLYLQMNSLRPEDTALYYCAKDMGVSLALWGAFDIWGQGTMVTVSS VL: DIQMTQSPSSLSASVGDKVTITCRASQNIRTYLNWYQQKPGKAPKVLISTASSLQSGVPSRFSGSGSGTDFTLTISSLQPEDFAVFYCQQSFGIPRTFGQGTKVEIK
true

Param item: mAb25479 (antibody, V domains shown) VH: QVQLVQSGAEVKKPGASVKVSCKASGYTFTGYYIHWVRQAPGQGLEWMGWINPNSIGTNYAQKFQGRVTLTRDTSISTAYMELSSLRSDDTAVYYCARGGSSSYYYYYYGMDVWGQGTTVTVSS VL: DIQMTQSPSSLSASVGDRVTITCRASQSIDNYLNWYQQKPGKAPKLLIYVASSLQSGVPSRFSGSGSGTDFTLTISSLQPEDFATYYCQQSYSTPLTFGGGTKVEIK
false

How about mAb22033 (antibody, V domains shown) VH: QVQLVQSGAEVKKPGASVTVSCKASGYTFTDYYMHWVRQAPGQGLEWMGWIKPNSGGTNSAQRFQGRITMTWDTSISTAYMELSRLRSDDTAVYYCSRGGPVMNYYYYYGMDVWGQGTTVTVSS VL: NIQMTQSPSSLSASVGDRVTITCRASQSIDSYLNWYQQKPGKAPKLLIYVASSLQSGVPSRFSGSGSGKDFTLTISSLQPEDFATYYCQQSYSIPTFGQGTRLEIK ?
false

What about this binder? mAb25497 (antibody, V domains shown) VH: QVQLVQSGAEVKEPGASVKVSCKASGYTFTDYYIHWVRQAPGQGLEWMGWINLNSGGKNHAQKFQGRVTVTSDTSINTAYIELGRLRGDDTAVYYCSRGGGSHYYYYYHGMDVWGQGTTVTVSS VL: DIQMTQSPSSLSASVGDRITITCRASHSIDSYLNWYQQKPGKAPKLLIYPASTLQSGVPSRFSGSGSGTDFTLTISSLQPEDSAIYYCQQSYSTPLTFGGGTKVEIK
false

Also check mAb25508 (antibody, V domains shown) VH: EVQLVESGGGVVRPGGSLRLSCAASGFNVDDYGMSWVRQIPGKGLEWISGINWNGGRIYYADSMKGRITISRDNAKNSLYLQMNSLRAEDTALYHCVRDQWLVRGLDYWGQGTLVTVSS VL: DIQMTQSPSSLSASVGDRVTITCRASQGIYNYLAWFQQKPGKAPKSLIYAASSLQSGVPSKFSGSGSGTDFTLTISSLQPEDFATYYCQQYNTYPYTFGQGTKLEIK
true
